Tested on: Human immunodeficiency virus 1
Measurement Notes: Antiviral activity against HIV1 3B infected in human CEM-SS cells assessed as reduction of virus-induced cytopathic effect at 10 uM after 6 days by MTS assay
Format: functional
Parameters: scale not given: the % may be the effect or the level left

| Smiles Entry | Unit Tag | Activity |
| --- | --- | --- |
| CCNc1c(C(=O)NCc2ccc(F)cc2)c(=O)n(O)c(=O)n1C | % | 6.5 |
| CNc1[nH]c(=O)n(O)c(=O)c1C(=O)NCc1ccccc1 | % | 100 |
| CCNc1[nH]c(=O)n(O)c(=O)c1C(=O)NCc1ccc(F)cc1 | % | 100 |
| CCNc1[nH]c(=O)n(O)c(=O)c1C(=O)Oc1ccccc1 | % | 50 |
| CCNc1[nH]c(=O)n(O)c(=O)c1C(=O)NCc1ccc(F)cc1F | % | 100 |
| CCNc1[nH]c(=O)n(O)c(=O)c1C(=O)NCc1cc(F)ccc1Cl | % | 62 |
| CCCNc1[nH]c(=O)n(O)c(=O)c1C(=O)NCc1cccc(Cl)c1F | % | 33 |
| O=C(NCc1ccccc1)c1c(Nc2ccccc2)[nH]c(=O)n(O)c1=O | % | 0 |
| CNc1[nH]c(=O)n(O)c(=O)c1C(=O)NCc1ccc(F)cc1 | % | 100 |
| Nc1[nH]c(=O)n(O)c(=O)c1C(=O)NCc1ccccc1 | % | 99 |
| CCNc1[nH]c(=O)n(O)c(=O)c1C(=O)NCc1cccc(Cl)c1F | % | 100 |
| CC(C)Nc1[nH]c(=O)n(O)c(=O)c1C(=O)NCc1ccccc1 | % | 98 |
| CCNc1[nH]c(=O)n(O)c(=O)c1C(=O)NCc1ccccc1 | % | 100 |
| CNc1[nH]c(=O)n(O)c(=O)c1C(=O)NCc1cccc(Cl)c1F | % | 100 |
| CCNc1[nH]c(=O)n(O)c(=O)c1C(=O)Nc1ccccc1 | % | 11 |
| CCCNc1[nH]c(=O)n(O)c(=O)c1C(=O)NCc1ccccc1 | % | 100 |
| CC(C)(C)Nc1[nH]c(=O)n(O)c(=O)c1C(=O)NCc1ccccc1 | % | 0 |
| CCNc1[nH]c(=O)n(O)c(=O)c1C(=O)NCc1ccc(Cl)c(F)c1 | % | 100 |
| O=C(NCc1ccc(F)cc1)c1c2n(c(=O)n(O)c1=O)CCCN2 | % | 0 |
| O=C(NCc1ccccc1)c1c(Nc2ccc(-c3ccccc3)cc2)[nH]c(=O)n(O)c1=O | % | 0 |
| CCNc1[nH]c(=O)n(O)c(=O)c1C(=O)NCc1cccc(F)c1 | % | 100 |
| O=C(NCc1ccccc1)c1c(NC2CC2)[nH]c(=O)n(O)c1=O | % | 98 |

* * *

Let's look at some molecules and their measured IC50.
Measurement Target: UniProtKB Q7ZJM1
Sequence (Q7ZJM1 whole entry): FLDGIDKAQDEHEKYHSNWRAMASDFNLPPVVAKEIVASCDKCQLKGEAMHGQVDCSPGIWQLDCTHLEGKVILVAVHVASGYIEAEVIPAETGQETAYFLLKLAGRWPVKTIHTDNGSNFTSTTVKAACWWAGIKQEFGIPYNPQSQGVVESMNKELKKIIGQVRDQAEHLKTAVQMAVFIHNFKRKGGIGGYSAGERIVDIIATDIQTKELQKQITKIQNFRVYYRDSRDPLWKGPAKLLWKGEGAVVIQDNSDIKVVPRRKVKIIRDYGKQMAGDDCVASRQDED
Measurement Notes: Inhibition of HIV1 recombinant integrase expressed in Escherichia coli using [32P]-labeled oligonucleotide as substrate after 60 mins by strand transfer activity assay
Measure Name: IC50

| Smiles Entry | Result Value |
| --- | --- |
| CCNc1[nH]c(=O)n(O)c(=O)c1C(=O)NCc1cccc(F)c1 | 68 nM |
| CCNc1[nH]c(=O)n(O)c(=O)c1C(=O)NCCCl | > 100000 nM |
| CCNc1[nH]c(=O)n(O)c(=O)c1C(=O)NCc1cc(F)cc(F)c1 | 230 nM |
| CCCNc1[nH]c(=O)n(O)c(=O)c1C(=O)NCc1ccccc1 | 66 nM |
| CNc1[nH]c(=O)n(O)c(=O)c1C(=O)NCc1cccc(F)c1 | 250 nM |
| CCNc1[nH]c(=O)n(O)c(=O)c1C(=O)NCc1cccc(Cl)c1F | 21 nM |

Values from ChEMBL document CHEMBL4477212
